- Test system: Thymidine kinase (Human herpesvirus 1 (strain SC16) (HHV-1) (Human herpes simplex virus1))
- Sequence (P06479 whole entry): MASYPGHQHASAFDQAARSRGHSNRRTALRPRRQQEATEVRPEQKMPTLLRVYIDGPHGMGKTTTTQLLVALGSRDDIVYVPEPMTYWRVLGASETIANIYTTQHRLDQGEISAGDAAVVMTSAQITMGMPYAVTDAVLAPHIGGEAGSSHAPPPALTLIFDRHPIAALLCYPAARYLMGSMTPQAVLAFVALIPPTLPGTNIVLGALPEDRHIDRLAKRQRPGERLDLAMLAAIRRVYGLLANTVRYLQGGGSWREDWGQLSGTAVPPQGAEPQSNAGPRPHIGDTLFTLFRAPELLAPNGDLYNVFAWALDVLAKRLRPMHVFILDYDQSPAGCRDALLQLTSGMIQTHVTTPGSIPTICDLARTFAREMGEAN
- Assay explanation: Inhibitory activity against HSV-1 Thymidine Kinase (HSV-1 TK)
pIC50: −log10 of the molar value.
Quantity measured: pIC50

Compound | Readout value
CCc1cn([C@H]2C[C@H](O)[C@@H](CNC(=O)Cc3c(C)cccc3C)O2)c(=O)[nH]c1=O | 7.40
CCc1cn([C@H]2C[C@H](O)[C@@H](CNC(=O)Cc3ccccc3F)O2)c(=O)[nH]c1=O | 6.15
CCc1cn([C@H]2C[C@H](O)[C@@H](CNC(=O)Cc3ccccc3C(F)(F)F)O2)c(=O)[nH]c1=O | 6.70
CCc1cn([C@H]2C[C@H](O)[C@@H](CNC(=O)C3c4ccccc4Cc4ccccc43)O2)c(=O)[nH]c1=O | 8.15
CCc1cn([C@@H]2O[C@H](CNC(=O)C3c4ccccc4S(=O)(=O)c4c(Cl)cccc43)[C@@H](O)[C@@H]2F)c(=O)[nH]c1=O (stereo partly specified) | 9.57
CCc1cn([C@H]2C[C@H](O)[C@@H](CNC(=O)Cc3ccccc3OC)O2)c(=O)[nH]c1=O | 6.52

* * *

- Test system: Thymidine kinase (Human herpesvirus 1 (strain SC16) (HHV-1) (Human herpes simplex virus1))
- Assay explanation: Inhibitory activity against HSV-1 Thymidine Kinase (HSV-1 TK)
pIC50: −log10 of the molar value.
Quantity measured: pIC50

Compound | Quantity measured | Readout value
CCc1cn([C@@H]2O[C@H](CNC(=O)C3c4cccc(Cl)c4Oc4c(Cl)cccc43)[C@@H](O)[C@@H]2F)c(=O)[nH]c1=O | pIC50 | 9.52
CCc1cn([C@@H]2O[C@H](CNC(=O)C3c4cccc(C)c4Oc4c(C)cccc43)[C@@H](O)[C@@H]2F)c(=O)[nH]c1=O | pIC50 | 8.66
CCc1cn([C@H]2C[C@H](O)[C@@H](CNC(=O)C3c4ccccc4N(C)c4ccccc43)O2)c(=O)[nH]c1=O | pIC50 | 7.64
CCc1cn([C@@H]2O[C@H](CNC(=O)C3c4ccccc4Oc4c(OC)cccc43)[C@@H](O)[C@@H]2F)c(=O)[nH]c1=O (stereo not given in full) | pIC50 | 8.77
CCc1cn([C@H]2C[C@H](O)[C@@H](CNC(=O)Cc3ccccc3Cl)O2)c(=O)[nH]c1=O | pIC50 | 7.00
CCc1cn([C@H]2C[C@H](O)[C@@H](CNC(=O)C3c4ccccc4S(=O)(=O)c4ccccc43)O2)c(=O)[nH]c1=O | pIC50 | 9.02
CCc1cn([C@@H]2O[C@H](CNC(=O)C3c4ccccc4Oc4c3cccc4C(F)(F)F)[C@@H](O)[C@@H]2F)c(=O)[nH]c1=O (stereo not given in full) | pIC50 | 9.00
CCc1cn([C@H]2C[C@H](O)[C@@H](CNC(=O)Cc3ccccc3C)O2)c(=O)[nH]c1=O | pIC50 | 6.70
CCc1cn([C@@H]2O[C@H](CNC(=O)C3c4ccccc4Sc4c(Cl)cccc43)[C@@H](O)[C@@H]2F)c(=O)[nH]c1=O (stereo not given in full) | pIC50 | 8.82
CCc1cn([C@@H]2O[C@H](CNC(=O)C3c4ccccc4Oc4ccccc43)[C@@H](O)[C@@H]2F)c(=O)[nH]c1=O | pIC50 | 8.68
CCc1cn([C@@H]2O[C@H](CNC(=O)C3c4ccccc4Oc4c(-c5ccccc5)cccc43)[C@@H](O)[C@@H]2F)c(=O)[nH]c1=O (stereo not given in full) | pIC50 | 9.18
CCc1cn([C@H]2C[C@H](O)[C@@H](CNC(=O)Cc3ccccc3-c3ccccc3)O2)c(=O)[nH]c1=O | pIC50 | 6.62
CCc1cn([C@H]2C[C@H](O)[C@@H](CNC(=O)C3c4ccccc4-c4ccccc43)O2)c(=O)[nH]c1=O | pIC50 | 7.55
CCc1cn([C@H]2C[C@H](O)[C@@H](CNC(=O)C3c4ccccc4Sc4ccccc43)O2)c(=O)[nH]c1=O | pIC50 | 7.94
CCc1cn([C@@H]2O[C@H](CNC(=O)C3c4ccccc4C(C)(C)c4ccccc43)[C@@H](O)[C@@H]2F)c(=O)[nH]c1=O | pIC50 | 8.82
